Test system: α-β-Tubulin
Experiment: α-β-Tubulin polymerization assay
Type: biochemical
Design: key: a compound showing 0 to 50% inhibition at 20 μM is reported as score 1; Score 2 compounds are defined as compound showing more than 50% inhibition at 20 μM and less than 50% inhibition at 5 μM; a compound showing more than 50% inhibition at 5 μM is reported as score 3
Conditions: inhibition of polymerization at 20 μM and 5 μM, reported as score
Description: The tubulin polymerization assay is an adaptation of an assay originally described by Bonne, D. et al. (J. Biol. Chem., 1985, 260:2819-25). […] Compounds were added to 25 μl of the reaction mix in 96-well PP plates (Corning) on ice and 10 μl of this mixture was dispensed into duplicates of the 384-well Proxiplates pre-warmed to 37° C. in a Fluoroskan Ascent plate reader (Thermo Scientific). Fluorescence measurements were taken every minute for one hour. […]
metric-name: tubulin polymerization score

-- ask Identify measured tubulin polymerization score associated with CCN1Cc2ccc(C(C)(C#N)Cc3ccccc3)cc2NC1=O (stereo not drawn)
-- reply 2

---

Test system: Human colon carcinoma HCT116 cells
Test: Anti-proliferative effect, Alamar Blue assay, HCT116
Format: cell-based
Conditions: Homo sapiens, HCT-116, 96 h, 4-day incubation, read-out: HCT116 antiproliferative activity pIC50 (converted)
metric-name: IC50 (nM)
Only the number, expressed in nM, is required.

Sample answers from the record:
[[record]]
compound = "CCN1Cc2ccc([C@@](C)(C#N)[C@@H]3CCc4c(Cl)ccnc43)cc2NC1=O [Compound 14]"
obs_value = 501

[[record]]
compound = "C#Cc1cccc(CC(C)(C#N)c2ccc3c(c2)NC(=O)N(CC)C3)c1 (centres unmarked) [Compound 10]"
obs_value = 158

[[record]]
compound = "CCN1Cc2ccc(C(C)(C#N)CNCc3ccc(C#N)cc3)cc2NC1=O (centres unmarked) [Compound 12]"
obs_value = 631


Okay, next one:
-- ask Please respond with reported IC50 (system Human colon carcinoma HCT116 cells) for CCN1Cc2ccc(C(C)(C#N)Cc3cccc(I)c3)cc2NC1=O (centres unmarked) [Compound 8] .
-- reply 200

---

# IC50 listing for each entry below
Tested on: Human colon carcinoma HCT116 cells
Assay: Anti-proliferative effect, Alamar Blue assay, HCT116
Type: cell-based
Details: Homo sapiens, HCT-116, 96 h, 4-day incubation, read-out: HCT116 antiproliferative activity pIC50 (converted)
Only the number, expressed in nM, is required.

[[record]]
compound = "CCN1Cc2ccc(C(C)(C#N)Cc3cccc(C#CCO)c3)cc2NC1=O (stereo not drawn)"
system_tested = "Human colon carcinoma HCT116 cells"
obs_value = 316

[[record]]
compound = "CCN1Cc2ccc([C@](C)(C#N)Cc3cccc(C#N)c3)cc2NC1=O"
system_tested = "Human colon carcinoma HCT116 cells"
obs_value = 50.1

[[record]]
compound = "CCN1Cc2ccc(C(C#N)(CC)Cc3cccc(C#N)c3)cc2NC1=O (stereo not drawn)"
system_tested = "Human colon carcinoma HCT116 cells"
obs_value = 316

[[record]]
compound = "CCN1Cc2ccc([C@](C)(C#N)Cc3ccccc3)cc2NC1=O"
system_tested = "Human colon carcinoma HCT116 cells"
obs_value = 200

[[record]]
compound = "CCN1Cc2ccc(C(C)(C#N)CCOc3ccc(C#N)cc3)cc2NC1=O (stereo not drawn)"
system_tested = "Human colon carcinoma HCT116 cells"
obs_value = 100

[[record]]
compound = "CCN1Cc2ccc([C@](C)(C#N)Cc3nc(OC)cc(OC)n3)cc2NC1=O (single isomer, unassigned)"
system_tested = "Human colon carcinoma HCT116 cells"
obs_value = 39.8

[[record]]
compound = "CN1Cc2ccc(C(C)(C#N)Cc3ccccc3)cc2NC1=O (stereo not drawn)"
system_tested = "Human colon carcinoma HCT116 cells"
obs_value = 794


Okay, next one:
-- ask Please respond with reported IC50 (system Human colon carcinoma HCT116 cells) for CCN1Cc2ccc([C@](C)(C#N)[C@@H]3CCc4c(Cl)ccnc43)cc2NC1=O .
-- reply 79.4
